Test system: C. neoformans H99
Format: cell-based, Cryptococcus neoformans
condition: +8 μg/mL KKOO; RPMI1640, 37 °C, 48 h
Description: All microdilution assays with fungi were carried out in accordance with CLSI protocols from M27 for yeasts and M38 for filamentous fungi, respectively, unless otherwise specified.[64],[65] Briefly, 96-well plates were charged with RPMI1640 media, with operating volume in the first column, 200 μL, and half operating volume, 100 μL, in the remaining wells. Drug stock solution in DMSO was aliquoted into the first well in each row. […]
assay.readout: MIC of antifungal in combination with KKOO (µg/mL)
One number for each entry, in µg/mL.

// below: answered compounds
C[C@@H]1[C@H](O)[C@@H](C)/C=C/C=C/C=C/C=C/C=C/C=C/C=C/[C@H](O[C@@H]2O[C@H](C)[C@@H](O)[C@H](N)[C@@H]2O)C[C@@H]2O[C@](O)(C[C@@H](O)C[C@@H](O)[C@H](O)CC[C@@H](O)C[C@@H](O)CC(=O)O[C@H]1C)C[C@H](O)[C@H]2C(=O)O
0.062
CCC(C)n1ncn(-c2ccc(N3CCN(c4ccc(OCC5COC(Cn6cncn6)(c6ccc(Cl)cc6Cl)O5)cc4)CC3)cc2)c1=O (stereo not shown)
0.008
OC(Cn1cncn1)(Cn1cncn1)c1ccc(F)cc1F
1

Consider the record given below.
Item: CC[C@H](C)C[C@H](C)CCCCCCCCC(=O)N[C@H]1C[C@@H](O)[C@@H](NCCN)NC(=O)[C@@H]2[C@@H](O)CCN2C(=O)[C@H]([C@H](O)CCN)NC(=O)[C@H]([C@H](O)[C@@H](O)c2ccc(O)cc2)NC(=O)[C@@H]2C[C@@H](O)CN2C(=O)[C@H]([C@@H](C)O)NC1=O | MIC of antifungal in combination with KKOO: 8

* * *

System: Cg FKS1 S629P
experiment.summary: Drug synergy (MIC in peptide-supplemented media)
Type: cell-based, Candida glabrata
condition: +0 μg/mL KKOO (control); RPMI1640, 37 °C, 48 h
assay.readout: MIC of antifungal in combination with KKOO (µg/mL)
Give bare numbers, in µg/mL.

OC(Cn1cncn1)(Cn1cncn1)c1ccc(F)cc1F [FLC, fluconazole]
2
CC[C@H](C)C[C@H](C)CCCCCCCCC(=O)N[C@H]1C[C@@H](O)[C@@H](NCCN)NC(=O)[C@@H]2[C@@H](O)CCN2C(=O)[C@H]([C@H](O)CCN)NC(=O)[C@H]([C@H](O)[C@@H](O)c2ccc(O)cc2)NC(=O)[C@@H]2C[C@@H](O)CN2C(=O)[C@H]([C@@H](C)O)NC1=O [CAS, caspofungin]
1
CCC(C)n1ncn(-c2ccc(N3CCN(c4ccc(OCC5COC(Cn6cncn6)(c6ccc(Cl)cc6Cl)O5)cc4)CC3)cc2)c1=O (stereo not shown) [ITR, itraconazole]
0.125

Consider the record given below.
Measured MIC of antifungal in combination with KKOO (Cg FKS1 S629P), entry C[C@@H]1[C@H](O)[C@@H](C)/C=C/C=C/C=C/C=C/C=C/C=C/C=C/[C@H](O[C@@H]2O[C@H](C)[C@@H](O)[C@H](N)[C@@H]2O)C[C@@H]2O[C@](O)(C[C@@H](O)C[C@@H](O)[C@H](O)CC[C@@H](O)C[C@@H](O)CC(=O)O[C@H]1C)C[C@H](O)[C@H]2C(=O)O [AMB, amphotericin B] : 1

* * *

Tested on: C. glabrata 2001
Assay type: cell-based, Candida glabrata
condition: +1 μg/mL KKOO; RPMI1640, 37 °C, 48 h
Please respond with reported MIC of antifungal in combination with KKOO for every item in the list.
Give bare numbers, in µg/mL.

// below: answered compounds
CC[C@H](C)C[C@H](C)CCCCCCCCC(=O)N[C@H]1C[C@@H](O)[C@@H](NCCN)NC(=O)[C@@H]2[C@@H](O)CCN2C(=O)[C@H]([C@H](O)CCN)NC(=O)[C@H]([C@H](O)[C@@H](O)c2ccc(O)cc2)NC(=O)[C@@H]2C[C@@H](O)CN2C(=O)[C@H]([C@@H](C)O)NC1=O [CAS, caspofungin]
0.5
C[C@@H]1[C@H](O)[C@@H](C)/C=C/C=C/C=C/C=C/C=C/C=C/C=C/[C@H](O[C@@H]2O[C@H](C)[C@@H](O)[C@H](N)[C@@H]2O)C[C@@H]2O[C@](O)(C[C@@H](O)C[C@@H](O)[C@H](O)CC[C@@H](O)C[C@@H](O)CC(=O)O[C@H]1C)C[C@H](O)[C@H]2C(=O)O [AMB, amphotericin B]
0.5
OC(Cn1cncn1)(Cn1cncn1)c1ccc(F)cc1F [FLC, fluconazole]
8

Consider the record given below.
Item: CCC(C)n1ncn(-c2ccc(N3CCN(c4ccc(OCC5COC(Cn6cncn6)(c6ccc(Cl)cc6Cl)O5)cc4)CC3)cc2)c1=O (stereo not shown) [ITR, itraconazole] | MIC of antifungal in combination with KKOO: 0.25

* * *

System: A. fumigatus AF293
experiment.summary: Drug synergy (MIC in peptide-supplemented media)
Type: cell-based, Aspergillus fumigatus
condition: +2 μg/mL KKOO-NH2; RPMI1640, 37 °C, 48 h; CAS: paradoxical growth, MIC = well with <20% growth
assay.readout: MIC of antifungal in combination with KKOO-NH2 (µg/mL)
Give bare numbers, in µg/mL.

// below: answered compounds
CC[C@H](C)C[C@H](C)CCCCCCCCC(=O)N[C@H]1C[C@@H](O)[C@@H](NCCN)NC(=O)[C@@H]2[C@@H](O)CCN2C(=O)[C@H]([C@H](O)CCN)NC(=O)[C@H]([C@H](O)[C@@H](O)c2ccc(O)cc2)NC(=O)[C@@H]2C[C@@H](O)CN2C(=O)[C@H]([C@@H](C)O)NC1=O
0.031
C[C@@H]1[C@H](O)[C@@H](C)/C=C/C=C/C=C/C=C/C=C/C=C/C=C/[C@H](O[C@@H]2O[C@H](C)[C@@H](O)[C@H](N)[C@@H]2O)C[C@@H]2O[C@](O)(C[C@@H](O)C[C@@H](O)[C@H](O)CC[C@@H](O)C[C@@H](O)CC(=O)O[C@H]1C)C[C@H](O)[C@H]2C(=O)O
0.25

Consider the record given below.
Item: CCC(C)n1ncn(-c2ccc(N3CCN(c4ccc(OCC5COC(Cn6cncn6)(c6ccc(Cl)cc6Cl)O5)cc4)CC3)cc2)c1=O (stereo not shown) | MIC of antifungal in combination with KKOO-NH2: 0.062

* * *

Please respond with reported MIC of antifungal in combination with KKOO for every item in the list.
Tested on: C. auris B11245
Format: cell-based, Candida auris
condition: +4 μg/mL KKOO; RPMI1640, 37 °C, 48 h; CAS: paradoxical growth, MIC = <20% growth
Protocol: All microdilution assays with fungi were carried out in accordance with CLSI protocols from M27 for yeasts and M38 for filamentous fungi, respectively, unless otherwise specified.[64],[65] Briefly, 96-well plates were charged with RPMI1640 media, with operating volume in the first column, 200 μL, and half operating volume, 100 μL, in the remaining wells. Drug stock solution in DMSO was aliquoted into the first well in each row. […]

C[C@@H]1[C@H](O)[C@@H](C)/C=C/C=C/C=C/C=C/C=C/C=C/C=C/[C@H](O[C@@H]2O[C@H](C)[C@@H](O)[C@H](N)[C@@H]2O)C[C@@H]2O[C@](O)(C[C@@H](O)C[C@@H](O)[C@H](O)CC[C@@H](O)C[C@@H](O)CC(=O)O[C@H]1C)C[C@H](O)[C@H]2C(=O)O
0.25 µg/mL

Batch request: MIC of antifungal in combination with KKOO for each of the following compounds.
1. CC[C@H](C)C[C@H](C)CCCCCCCCC(=O)N[C@H]1C[C@@H](O)[C@@H](NCCN)NC(=O)[C@@H]2[C@@H](O)CCN2C(=O)[C@H]([C@H](O)CCN)NC(=O)[C@H]([C@H](O)[C@@H](O)c2ccc(O)cc2)NC(=O)[C@@H]2C[C@@H](O)CN2C(=O)[C@H]([C@@H](C)O)NC1=O
2. CCC(C)n1ncn(-c2ccc(N3CCN(c4ccc(OCC5COC(Cn6cncn6)(c6ccc(Cl)cc6Cl)O5)cc4)CC3)cc2)c1=O (stereo not shown)

Response given:
["0.031 µg/mL", "0.031 µg/mL"]

Item: OC(Cn1cncn1)(Cn1cncn1)c1ccc(F)cc1F | MIC of antifungal in combination with KKOO: > 128 µg/mL

* * *

System: C. albicans SC5413
Assay type: cell-based, Candida albicans
condition: +4 μg/mL KKOO; RPMI1640, 37 °C, 48 h; azole MICs unclear (intermediate phenotype)
assay.readout: MIC of antifungal in combination with KKOO (µg/mL)
One number for each entry, in µg/mL.

Batch request: MIC of antifungal in combination with KKOO for each of the following compounds.
1. CC[C@H](C)C[C@H](C)CCCCCCCCC(=O)N[C@H]1C[C@@H](O)[C@@H](NCCN)NC(=O)[C@@H]2[C@@H](O)CCN2C(=O)[C@H]([C@H](O)CCN)NC(=O)[C@H]([C@H](O)[C@@H](O)c2ccc(O)cc2)NC(=O)[C@@H]2C[C@@H](O)CN2C(=O)[C@H]([C@@H](C)O)NC1=O [CAS, caspofungin]
2. C[C@@H]1[C@H](O)[C@@H](C)/C=C/C=C/C=C/C=C/C=C/C=C/C=C/[C@H](O[C@@H]2O[C@H](C)[C@@H](O)[C@H](N)[C@@H]2O)C[C@@H]2O[C@](O)(C[C@@H](O)C[C@@H](O)[C@H](O)CC[C@@H](O)C[C@@H](O)CC(=O)O[C@H]1C)C[C@H](O)[C@H]2C(=O)O [AMB, amphotericin B]

Response given:
0.556
0.125
